Test system: SN12C
test.method.notes: NCI tumour cell line growth inhibition, 48 h
The source made the active and inactive calls. No stated cut-off is given here; in the data, active = GI50 up to about 1.1 µM and inactive = higher.
Can you answer with just one of these options? active, inactive

Prompt line: Call for entry O=[N+]([O-])c1ccc(Cl)c(C2CC(c3cccc4ccccc34)=Nc3ccccc3S2)c1 (stereo unspecified) :
Response line: inactive

Prompt line: For CC(C)(C)NCCC(O)c1cc(C(F)(F)F)nc2c(C(F)(F)F)cccc12 (stereo unspecified) , what call appears in the results of this test?
Response line: inactive

Prompt line: What outcome does the record of this test show for "Nc1ccccc1C(=O)N/N=C1\C(=O)Nc2ccccc21" ?
Response line: inactive

Prompt line: Recorded test outcome, item CC1N(O)C(c2ccccc2)C(c2ccccc2)=[N+]1[O-] (stereo unspecified)
Response line: inactive

Prompt line: Can you look up the reported call for "Cc1ccc(C(=O)O/N=C2/CCCC/C2=C\c2ccccc2)cc1" for me?
Response line: inactive

Prompt line: Check the results log: what was the call for "CC[C@]1(O)C(=O)OCc2c1cc1n(c2=O)Cc2cc3c(N)cccc3nc2-1" ?
Response line: inactive

Prompt line: Hey, what did the test say about COc1ccc2oc(C(=O)N3CC(CCl)c4ccc(N)cc43)cc2c1 (stereo unspecified) ?
Response line: active

Prompt line: Just curious, what result did "COC(=O)c1cc2c(=O)n(C)c3ccccc3n2c1C(=O)OC" get here?
Response line: inactive

Prompt line: # outcome recorded in this test, key = "Nc1ccc2ccc(N3CCNCC3)nc2n1"
Response line: inactive

Prompt line: What did this assay record as the result for CCCCCCCC(=O)OCC1OC(OC)C(NC(=O)N(CCCl)N=O)C(O)C1O (stereo unspecified) ?
Response line: inactive

Prompt line: Tell me the assay call for COC1=C(C)C(=O)c2c(c(COC(N)=O)c3n2CC(OC(C)=O)C3OC(C)=O)C1=O (stereo unspecified) please.
Response line: active

Prompt line: So what was the verdict on "O=[As](O)(O)c1ccc(/N=N/c2ccc(O)cc2)cc1" in this test?
Response line: inactive

Prompt line: Recorded test outcome, item "COc1ccc(/C=C2\C(=O)Nc3ccccc32)cc1OC"
Response line: inactive

Prompt line: How was CCN(CC)CCC(=O)N1CCc2c([nH]c3ccccc23)C1c1cccnc1 (stereo unspecified) classified in this test?
Response line: inactive

Prompt line: Could you check what this test reported for "COc1ccc(/C=C/C(=O)c2nc3ccccc3[nH]2)cc1" ?
Response line: inactive

Prompt line: Check the results log: what was the call for "c1ccc2c(c1)Nc1c3ccccc3nc3cccc-2c13" ?
Response line: active

Prompt line: Could you please tell me the result logged for CCCCCCCC(=O)NC(C)(C)C(=O)NCC(=O)NC(CC(C)C)C(=O)NC(C)(C)C(=O)NCC(=O)NCC(=O)NC(CC(C)C)C(=O)NC(C)(C)C(=O)NCC(=O)NC(C(=O)NC(CO)CC(C)C)C(C)CC (stereo unspecified) in this assay?
Response line: inactive

Prompt line: Assay outcome for "O=C(/C=C\c1ccccc1)Oc1ccc(/C=C2\CCCCC2=O)cc1" : what was it?
Response line: inactive

Prompt line: For "COC(=O)[C@@H](Cc1ccccc1)NNC(=O)OC(C)(C)C" , what call appears in the results of this test?
Response line: inactive

Prompt line: Please state the recorded outcome for this molecule: "COc1ccc(SCc2cc(OC)c(OC)c(OC)c2)cc1OC"
Response line: inactive

Prompt line: How was CC(NC(=O)C1(N)CCCC1)C(=O)O (stereo unspecified) classified in this test?
Response line: inactive

Prompt line: Recorded test call requested for "CCOc1ccc2c(C)cc(=O)oc2c1"
Response line: inactive

Prompt line: // param item: "C(=C\c1c2oc(-c3ccccc3)cc(-c3ccccc3)c-2c2ccccc12)/C=C1\c2ccccc2-c2c(-c3ccccc3)cc(-c3ccccc3)[o+]c21.[O-][Cl+3]([O-])([O-])[O-]" ; yields the recorded call
Response line: inactive

Prompt line: Call for entry "N/C(=N\N/C=C1\C=Nc2cc(C(F)(F)F)ccc2C1=O)NO" :
Response line: inactive

Prompt line: Call for entry "CCOC(=O)C(=CNC(=S)Nc1c(CC)cccc1CC)C(=O)OCC" :
Response line: inactive

Prompt line: For "COc1ccc2nc(NC(=O)C(=O)CC(=O)c3ccc([N+](=O)[O-])cc3)sc2c1" , which call appears in the assay record?
Response line: inactive

Prompt line: State the result this test recorded for "O=[N+]([O-])c1cccc2nc3ccccc3c(NCCCCCNc3c4ccccc4nc4cccc([N+](=O)[O-])c34)c12" .
Response line: active

Prompt line: Could you check what this test reported for C=C(C)[C@]12CC(C)C34OC(/C=C\C=C\CCCCCCCCC)(O[C@@H]1[C@@H]3[C@@H]1O[C@]1(CO)[C@@H](O)[C@]1(O)C(=O)C(C)=C[C@@H]41)O2 (stereo partly specified) ?
Response line: inactive

Prompt line: State the result this test recorded for CCOC(=O)NC/C=C/COC1CCCCO1 (stereo unspecified) .
Response line: inactive

Prompt line: Name the outcome recorded for Cc1cn(C2CC(OC(=O)c3ccc(Cl)cc3)C(COC(=O)c3ccc(Cl)cc3)O2)c(=O)[nH]c1=O (stereo unspecified) in the assay.
Response line: inactive

Prompt line: I'd appreciate the recorded outcome for COc1cc2cc(C(=O)N3CC(COS(C)(=O)=O)c4c3cc(N)c3ccccc43)[nH]c2c(OC)c1OC (stereo unspecified) from this test.
Response line: active

Prompt line: Answer briefly: the call reported for COCC1OC([P+](c2ccccc2)(c2ccccc2)c2ccccc2)CC(OC)C1OC (stereo unspecified) in this assay.
Response line: inactive

Prompt line: State the result this test recorded for "CCOC(=O)/C=C/CC(C)(C)CCOC(C)=O" .
Response line: inactive

Prompt line: What outcome does the record of this test show for COC(=O)CC(C(C(=O)OC)C(=O)OC)N1C(=O)OCC1c1ccccc1 (stereo unspecified) ?
Response line: inactive

Prompt line: Tell me the recorded outcome of this test for "C=CCN1C(=O)CNC1=S" .
Response line: inactive

Prompt line: Which outcome was assigned to "CC(C)(CCCCC(C)(C)[N+](C)(C)C)[N+](C)(C)C" in this test?
Response line: inactive

Prompt line: Check the results log: what was the call for "C[N+](C)(C)CCc1ccccc1" ?
Response line: inactive

Prompt line: Test call, this molecule: "COc1ccc(-c2coc3cc(O)ccc3c2=O)cc1"
Response line: inactive

Prompt line: Test call, this molecule: O=C(NN1C(=O)CSC1c1cccc(F)c1)c1ccncc1 (stereo unspecified)
Response line: inactive

Prompt line: Lab log entry: "O=C1[C@@H]2C3c4ccccc4C([C@@H]2C(=O)N1c1ccccc1)S3(=O)=O" — outcome as called in the assay?
Response line: inactive

Prompt line: Entry "Cc1nc(SCC(=O)Nc2ccc(Cl)cc2)c2sc(=S)n(-c3ccccc3)c2n1" : call = ?
Response line: inactive

====

System: K562
test.method.notes: NCI tumour cell line growth inhibition, 48 h
Active and inactive are the calls of the source. Cut-off read from the data, not from the text of the source: active = GI50 up to about 1.1 µM and inactive = higher.
// one of active, inactive, no free text

Prompt line: Any idea what this test logged for "Cn1c2ccccc2c2cc(N3CCCC3)c3c(c21)C(=O)N(c1ccccc1)C3=O" ?
Response line: inactive

Prompt line: What call does the record list for CC1CC2=C(S(=O)(=O)c3ccccc3)CC(S(=O)(=O)c3ccccc3)(S(=O)(=O)c3ccccc3)CC21 (stereo not given) ?
Response line: inactive

Prompt line: Short answer needed: outcome of this test for CC1CC(C[N+](=O)[O-])CC2(C1)OCCO2 (stereo not given) ?
Response line: inactive

Prompt line: What did the test return for COC(=O)C1(C#N)C(C)(C)N=C(c2ccccc2)C12CCCCC2 (stereo not given) ?
Response line: inactive

Prompt line: Record lookup: outcome of this test for "Cc1cn([C@@H]2O[C@H](CO)[C@@H](O)[C@@H]2O)c(=O)[nH]c1=O" ?
Response line: inactive

Prompt line: Any idea what this test logged for C[N+](C)(C)CC(=O)NC(=O)N/N=C\C(CC#N)CN(Cc1ccccc1)Cc1ccccc1 (stereo not given) ?
Response line: inactive

Prompt line: Identify the outcome logged in this assay for the compound shown: "Cc1ccc2c(=O)c(-c3nnc(NC4CCCCC4)s3)c[nH]c2n1"
Response line: inactive

Prompt line: Could you check what this test reported for "COc1ccc2cc3c4cc5c(cc4cc[n+]3cc2c1OC)OCO5" ?
Response line: inactive

Prompt line: Assay outcome for COC(=O)CC(C(C(=O)OC)C(=O)OC)N1C(=O)OCC1c1ccccc1 (stereo not given) : what was it?
Response line: inactive

Prompt line: What classification did O=C1N[C@H]2[C@H](O)[C@H](O)[C@@H](O)[C@H](O)[C@@H]2c2cc3c(c(O)c21)OCO3 [PANCRATISTATIN] end up with in this test?
Response line: active

Prompt line: Assay outcome for "CCCN(CCC)c1c([N+](=O)[O-])cc(C(=O)N(CCO)CCO)cc1[N+](=O)[O-]" : what was it?
Response line: inactive

Prompt line: Tell me the recorded outcome of this test for Cc1cc(Cc2c(F)c(F)c(C(c3cc(C)no3)c3c(F)c(F)c(F)c(F)c3F)c(F)c2F)on1 (stereo not given) .
Response line: inactive

Prompt line: Dear all, I need the recorded test outcome for "Clc1ccc(/C(=C\c2ccccc2)Cn2ccnc2)cc1" , thank you.
Response line: inactive

Prompt line: Check the results log: what was the call for COC1=C(C)C(=O)c2c(c(COC(N)=O)c3n2CC(OC(C)=O)C3OC(C)=O)C1=O (stereo not given) ?
Response line: active

Prompt line: Entry "C[N+](C)(C)CCc1ccccc1" : call = ?
Response line: inactive

Prompt line: Hello, I am checking results. What call was entered for "Cn1c2ccccc2c2c(-c3ccccc3)[n+]3ccccc3nc21" ?
Response line: inactive

Prompt line: Please state the recorded outcome for this compound: "CN(C(=O)Cc1cc(Cl)c(Cl)cc1NC(=O)CN)[C@H]1CCCC[C@@H]1N1CCCC1"
Response line: inactive

Prompt line: // param item: "O=C(/C=C/c1ccc(Cl)c(Cl)c1)c1ccc2ccccc2c1" ; yields the recorded call
Response line: inactive

Prompt line: Kindly provide the recorded test outcome for the following compound: "CC(=N\c1ccncc1)/C(C)=N/c1ccncc1"
Response line: inactive

Prompt line: Outcome? CC[C@@]1(O)C(=O)OCc2c1cc1n(c2=O)Cc2cc3ccccc3nc2-1 [CAMPTOTHECIN]
Response line: active
